- target-of-assay: T1, recombinant biotinylated CD137 protein (Fc-fusion protein, R&D Systems 838-4B) (human, UniProt Q07011 24-186, biotinylated, sites not stated)
- T1 construct: Bought Fc fusion; also called CD137-Fc
- protocol-summary: ELISA, lysate on biotinylated CD137-Fc
measured-metric: ELISA CD137 (RLU)

- ISOP193BR9P1G11 (designed binder, not shown: small tags and cut ends) LPAPKNLVVSRVTEDSARLSWAGHYRKIRNFDSFLIQYQESEKVGEAIVLTVPGSERSYDLTGLKPGTEYTVSIYGVKFPYYYATADSNPLSAIFTT: 4.99e+06
- ISOP193HR9P1F10 (designed binder, not shown: small tags and cut ends) LPAPKNLVVSRVTEDSARLSWTAPDAAFDSFDIYYYELRLGGEAIVLTVPGSERSYDLTGLKPGTEYLVTIYGVKGGYYSGPLSAIFTT: 1.58e+07
- ISOP193HR9P1B7 (designed binder, not shown: small tags and cut ends) LPAPKNLVVSRVTEDSARLSWTAPDAAFDSFEIYYFELRLGGEAIVLTVPGSERSYDLTGLKPGTEYLVSIYGVKGCGYSDPLSAIFTT: 1.64e+07
- ISOP193FR9P1D5 (designed binder, not shown: small tags and cut ends) LPAPKNLVVSRVTEDSARLSWTAPDAAFDSFYIRYIEDVDFGEAIVLTVPGSERSYDLTGLKPGTEYLVTIYGVKGCDWSDPLSAIFTT: 6.05e+06

A = ISOP193GR9P1G9 (designed binder, not shown: small tags and cut ends) LPAPKNLVVSRVTEDSARLSWTAPDAAFDSFAIFYHEFANSGEAIDLPVPGSERSYDLTGLKPGTEYDVRIYGVKGGTASIPLDAEFTT
B = ISOP193BR9P1H6 (designed binder, not shown: small tags and cut ends) LPAPKNLVVSRVTEDSARLSWPDESRPVRFDSFLIQYQESEKVGEAIVLTVPGSERSYDLTGLKPGTEYTVSIYGVVGQWKYATADSNPLSAIFTT
[Q] Return label of the item with the larger ELISA CD137 (RLU). Candidates: A , B . Give the label under which the chosen entry appears.
[A] B

I = ISOP193GR9P1F7 (designed binder, not shown: small tags and cut ends) LPAPKNLVVSRVTEDSARLSWTAPDAAFDSFDIPYVEYYPSGEAIVLNVPGSERSYDLTGLKPGTEYGVTIWGIKGGNESVPLTARFTT
II = ISOP193ER9P1G2 (designed binder, not shown: small tags and cut ends) LPAPKNLVVSRVTEDSARLSWTAPDAAFDSFDIYYFEQPVGGEAIVLTVPGSERSYDLTGLKPGTEYLVTIYGVKGGYLSMPLSAIFTT
[Q] Field: lower recorded ELISA CD137 (RLU) (choose I or II ) Give the label under which the chosen entry appears.
[A] I
(I: 3.48e+06 RLU, II: 7.19e+06 RLU)

a = ISOP193ER9P1A4 (designed binder, not shown: small tags and cut ends) LPAPKNLIVSRVTEDSARLSWTAPDAAFDSFEIYYKELRAEGEAIVLTVPGSERSYDLTGLKPGTEYLVTIYGVKGGSVSIPLSAIFTT
b = ISOP193HR9P1A5 (designed binder, not shown: small tags and cut ends) LPAPKNLVVSRVTEDSARLSWTAPDAAFDSFDIYYYELRLGGEAIVLTVPGSERSYDLTGLKPGTEYLVTIYGVKGCGYSAPLSAIVTT
[Q] Field: lower recorded ELISA CD137 (RLU) (choose a or b ) Give the label under which the chosen entry appears.
[A] a

Taken from patent US20220259289A1.
